- Test system: PPR (phenylpyruvate reductase) from Wickerhamia fluorescens TK1
- methodSummary: PPR activity measurement with purified PPR enzyme (NADPH decrease at 340 nm)
- Type: biochemical
- experimentalSetup: final concentration of compound 1 mM; None = 100
Lab note: cut-off is 80%. Strictly less in Relative activity is yes. Exactly 80% or more is no.

[
  {
    "molecule": "O=S(=O)([O-])[O-].[Cu+2]",
    "categoryLabel": "yes"
  },
  {
    "molecule": "[Cl][Mn][Cl]",
    "categoryLabel": "no"
  },
  {
    "molecule": "O=C(O)CN(CCN(CC(=O)O)CC(=O)O)CC(=O)O [EDTA, ethylenediaminetetraacetate]",
    "categoryLabel": "no"
  },
  {
    "molecule": "[Na+].[Na+].[O]=[W](=[O])([O-])[O-]",
    "categoryLabel": "yes"
  },
  {
    "molecule": "[Na+].[Na+].[O]=[Mo](=[O])([O-])[O-]",
    "categoryLabel": "no"
  },
  {
    "molecule": "[Ca+2].[Cl-].[Cl-]",
    "categoryLabel": "no"
  },
  {
    "molecule": "O=S(=O)([O-])[O-].[Zn+2]",
    "categoryLabel": "yes"
  },
  {
    "molecule": "[Cl][Fe][Cl]",
    "categoryLabel": "yes"
  },
  {
    "molecule": "[Cl][Ni][Cl]",
    "categoryLabel": "yes"
  },
  {
    "molecule": "O=S(=O)([O-])[O-].[Mg+2]",
    "categoryLabel": "no"
  },
  {
    "molecule": "[Cl][Hg][Cl]",
    "categoryLabel": "yes"
  }
]
